Experiment: yeast display, Sf9 membrane polyspecificity reagent, FACS + sequencing; frameworks hold sequencing errors
PROPERTY MEASURED: polyreactivity (PSR sort gate)

SEQ STRING	RESULT
QVQLVESGGGLVQAGGILRLSCAASGFTFKANAMGWYRQAPGKERELVAAISRRGSSTYYADSVKGRFTISRDNAKNTVYLQMNSLKPEDTAVYYCNTKPRAGRTKLGYWGQGTQVTVSS	high polyreactivity
QVQLVESGGGLVQAGGSLRLSCAASGSIFYYNAMGWYRQAPGKERELVAAITSGDSTNYADSVKGRFTISRDNAKNPVYLQMNSLKPEDTAVYYCAADYLAALTYYRTYDYWGQGTQVTVSS	low polyreactivity
QVQLVESGGALVQAGGSLRLSCAASGFTFPPSARGWYRQAPGKERELVARITWSGDRTYYADSVKGRFTISRDNAKNTVYLQMNSLKPEDTAVYYCAARRLPRKERKLYYWGQGTQVTVSS	high polyreactivity
QVQLVESGGGLVQAGGSLRLSCAASGIIFYHNAMGWYRQAPGKERELVASITEIGGSTYYADSVKGRFTISRDNAKNTVYLQMNSLKPEDTAVYYCAAGTLTSFSRYDYWGQGTQVTVSS	low polyreactivity

From here, focus on the item given below.
Input line: Give the measured polyreactivity (PSR sort gate) of "QVQLVESGGGLVQAGGSLRLSCAASGFTFGFYAMGWYRQAPGKERELVAAISKRGGSTYYADSVKGRFTISRDNAKNTVYLQMNSLKPEDTAVYYCAAVYTQSRGWEYDYWGQGTQVTVSS" .
Output line: high polyreactivity

---

Test: yeast display, Sf9 membrane polyspecificity reagent, FACS + sequencing; frameworks hold sequencing errors
PROPERTY MEASURED: polyreactivity (PSR sort gate)

In the examples that follow, each entry is paired with its recorded polyreactivity (PSR sort gate).
SEQ STRING	polyreactivity (PSR sort gate)
QVQLVESGGGLVQAGGSLRLSCAASGFIFWRYAMGWYRQAPGKERELVATITSSGGTTHYADSVKGRFTISRDNAKNTVYLQMNSLKPEDTAVYYCATRKGVGSLYYSRNYWGQGTQVTVSS	high polyreactivity
QVQLVDSGGGLVQAGGSLRLSCAASGNIICGYARGRNIQAPGKEREMVASISQRGGITYYADSVKGRFTISRDKAKNTVYLEMNSLKAEDTEVYYCAKRGTYGWYGAYDYWGEGTQVTVSS	low polyreactivity
QVQLVESGGGLGQAGGSLRLSCAASGFTFPWYAMGWYRPAPGKERELVASISYRGDSTYYADSVKGRFTISRDNAKNTVYLEMNSLKPEDTAVYYCNNSLASYYLPGFDYWGQGTQVTVSS	low polyreactivity
QVQLVESGGALVQAGGSLSLSCAASGSTYSYYAMGWYRQAPGKETEVVAAINRSGGSTYYADSVKGRFTISRDNAKYTVYLQMNSLKPEDTAVYYCAALRSKTVSYDRYDYWGQGTQVTVSS	high polyreactivity

Now, please, on to the next sequence.
Input line: Entry "QVQLVESGGGLVQAGGSLRLSCAASGFIFFYAMGWYRQAPGKERELVASIDSGVSTDYADSVKGRFTISRDNAKNTDYLQMNSLKTEDTAVYYCAADYRAPLEYWGQGTQVTVSS" has what polyreactivity (PSR sort gate)?
Output line: low polyreactivity

---

Experiment: yeast display, Sf9 membrane polyspecificity reagent, FACS + sequencing; frameworks hold sequencing errors
PROPERTY MEASURED: polyreactivity (PSR sort gate)

Would you please look over these solved cases?
SEQ STRING	polyreactivity (PSR sort gate)
QVQLVESGGGLVQAGGSLRLSCAASGRIFFTNAMGWYRQAPGKEREFVAGISFSGDGRTYYADSVKGRFTISRDNAKNTVYLQMNSLKPEDTAVYYCAAPHRSRTHELDYWGQGTQVTVSS	low polyreactivity
QVQLVESGGGLVQAGGSLRLSCASSGFTFKFNAMGWYRPAPGKERELVAAISQSGVNTYYADSVKGRFTISRDNAKNTVFLLMNSLKPEDTAVYYCAADFSAYGYDYWGQGTQVTVSS	low polyreactivity
QVQLVESGGGLVQAGGSLRLSCAASGSTFAGNAMGWYRQAPGKERELFAAITFSGGRTDYADSVKGRFTISRDNAKNTVYLQMNSLKPEDTAVYYCAAPADVTVHYLNYYWGQGTQVTVSS	low polyreactivity
QVQLVESGGGLVQAGGSLRLSCAASGRIYRYYAMGWYRQAPGKEREFVAAISYRGASTFYADSVKGRFTISRDNAKNTVYLQMNSLKPEDTAVYYCATDTRIRYQGNPYDYWGQGTQVTVSS	high polyreactivity
QVQLVESAGGLVQAGGRLRLSCAASGFIFTTNAMGWYRQAPGKEREFVAAITRSGGSTYADSVKGRFTISRDNAKNTVYLQMNSLKPEDTAVYYFNADWAGVDTSYEYDYWGQGTQVTVSS	low polyreactivity
QVQLVESGGGLVQAGGSLRVSCAASGFIFGLYAMGWYRQAPGKERELVATISWDGGSTYYADSVKGRFTISRDNAKNTVYLQMNSLKPEDTAVYYCAATYLYRSPYVPMDYWGQGSQVTVSS	low polyreactivity
QVQLVESGGGLVQAGGSLRLSCAASGSTFEYYAMGWYRQAPGKERELVAAISTAGSTYYADSVKGRFTISRDNAKNTVYLQMNSLKQEDTAVYYCAVDPSPRSYYNYYWGQGTQVTVSS	high polyreactivity
QVQLVESGGGLVQAGGSLRLSCAASGSTFGVYAMGWYRQAPGKERELVAAINARGTRTRYADSVKGRFTISRDNAKNTVYLQMTSMKPEDTAVYYCAAVWYGYYSIDTDGYWGQGSQVTVSS	high polyreactivity
QVQLVESGGGLVQAGGSLRLSCAASGRTFYLYAMGWYRQAPGKERELVAAITFNGGSTYYADSVKGRFTISRDNAKNTVYLQMNSLKPEDTAVYYCAARLSKRSGYYYWGQGTQVTVSS	high polyreactivity
QVQLVESCGGLVEAGGSLRLSCAASGSILYSNAMGWYRQGPGKESELVAAIRSGGSTSYADSVKGRFTISRDNANNTVYLQMNSLKPDDTAVYYSAADPSSGVTYGMYYWGQGSQVTVSS	low polyreactivity

Input line: Would you kindly share the measured polyreactivity (PSR sort gate) for "QVQLVDSGGGLVQAGGSLRLSCAASGRIFDYNAMGWYRQAPGKERELVAVITGTGGTTYYADSVKGRFTISRDNAKNTVYLQMNSVKPEDTAVYYCNADDYRLTSLYIPERYDYWGQGTQLTVSS" ?
Output line: low polyreactivity

Input line: # get_value(readout='polyreactivity (PSR sort gate)', item= "QVQLVESGGGLVQAGGSLRLSCAASGFTIGYYAMGWYRQAPGKERELVAAISWSGGRTYYAYSVKGRFTISRDNAKNTVYLQMNSLKPEDTAVYYCAADGQQTYSGYDYWGQGTQVTVSS" )
Output line: high polyreactivity

Input line: Consider the sequence shown here: "QVQLQESGGGLVQAGGSLRQSCAASGYIFPYYSMGSYRQAPGKERGLVACIAAGTTTNYADSVKGRFTISRDNAKKSVYLQMNSLKPEDAAVYYCAALNAFNTGHWYWGQGTQVTVSS" What is its recorded polyreactivity (PSR sort gate)?
Output line: low polyreactivity

Input line: What does the record list as polyreactivity (PSR sort gate) for "QVQLVESGGGLVQAGGSLRLSCAASGRIFSNNVMGWNRQGPGKERELVATISTDGRTNYADSVKGRFTISRDNAKNTVYLQMNSQKPEDTAVSYCAATGVTLLLSSKSDYWGQGTQVTVSS" ?
Output line: low polyreactivity

Input line: Quick check: polyreactivity (PSR sort gate) of "QDQHVESGGGLVQAGGSLRLICSASGSTNGLGWYRQAPGKERELVAVITWDTGGTYYADSVKGRFTISRDNAKNTVYLQMNSLKPEDTAVYYCAKDVGHGAGNLMGYWGQGTQVTVSS" ?
Output line: low polyreactivity
